Target: HIV protease (Human immunodeficiency virus type 1 group M subtype B, UniProt P04585)
Construct: and purified protease
Assay: HIV Protease Assay
Assay type: biochemical
Conditions: pH 5.5, 10 μM inhibitor, 4% DMSO, 450 μM substrate, pH 5.5, 30 minutes at 37° C., RP-HPLC; read-out: HIV Protease % Inhibition at 10 μM
Method: An HIV protease standard assay was performed in a 60 μl reaction medium containing 50 mM sodium acetate, pH 5.5, 100 μg/ml bovine serum albumen,450 μM substrate (H2 N-Val-Ser-Gln-Asn-(β-naphthyl-alanine)-Pro-Val-Ile-OH), and purified protease. The reaction medium was incubated for 30 minutes at 37° C., quenched by the addition of 140 μl 5% H3 PO4, then analyzed by reverse phase HPLC using UV220 detection. In a typical control assay, 7% of the substrate was hydrolyzed. […]
ENDPOINT LABEL: inhibition at 10 µM (%)
Numbers only here, please. The scale is %.

>>> experimental_result("CC(C)(C)OC(=O)N[C@@H](Cc1ccccc1)[C@H](O)CNC[C@@H](O)[C@H](Cc1ccccc1)NC(=O)O[C@H]1CCOC1 [Compound 331]")
99
>>> experimental_result("CC(C)(C)OC(=O)N[C@@H](Cc1ccccc1)[C@H](O)CNC[C@@H](O)[C@H](Cc1ccccc1)NC(=O)C(C)(C)C [Compound 269]")
61
>>> experimental_result("CC(C)(C)OC(=O)N[C@@H](Cc1ccccc1)[C@H](O)CNC[C@@H](O)[C@H](Cc1ccc(OCCCN2CCOCC2)cc1)NC(=O)OC(C)(C)C [Compound 201]")
99
>>> experimental_result("CC(C)[C@H](NC(=O)CO)C(=O)N[C@@H](Cc1ccccc1)[C@H](O)CNC[C@@H](O)[C@H](Cc1ccccc1)NC(=O)OC(C)(C)C (relative stereo) [Compound 259]")
99
>>> experimental_result("CC(C)(C)OC(=O)N[C@@H](Cc1ccccc1)[C@H](O)CNC[C@@H](O)[C@H](Cc1ccccc1OCc1ccccc1)NC(=O)OC(C)(C)C [Compound 348]")
99

Form field: reported inhibition at 10 µM of COCCOc1ccc(C[C@H](NC(=O)OC(C)(C)C)[C@H](O)CNC[C@@H](O)[C@H](Cc2ccccc2)NC(=O)OC(C)(C)C)cc1 [Compound 224] 98

Bench note: what inhibition at 10 µM did CC(C)(C)OC(=O)N[C@@H](Cc1ccccc1)[C@H](O)CNC[C@@H](O)[C@H](Cc1ccccc1)NC(=O)O[C@H]1CCc2ccccc21 [Compound 146] show? 98

# query: inhibition at 10 µM of entry CC(C)(C)OC(=O)N[C@@H](Cc1ccccc1)[C@H](O)CNC[C@@H](O)[C@H](Cc1ccccc1)NC(=O)OC(C)(C)CCCO [Compound 229] 82

Which inhibition at 10 µM is reported for this compound? CC(C)(C)OC(=O)N[C@@H](Cc1ccccc1)[C@H](O)CNC[C@@H](O)[C@H](Cc1ccccc1)NC(=O)OC(C)(C)C [Compound 2] 100

Entry CC(C)(C)OC(=O)N[C@@H](Cc1ccccc1)[C@H](O)CNC[C@@H](O)[C@H](Cc1ccc(OCCN2CCOC2=O)cc1)NC(=O)OC(C)(C)C [Compound 343] has what inhibition at 10 µM? 99

Which inhibition at 10 µM value belongs to CN(CC(O)C(Cc1ccccc1)NC(=O)OC(C)(C)C)CC(O)C(Cc1ccccc1)NC(=O)OC(C)(C)C (stereo not drawn) [Compound 200] ? 5

Given CC(C)(C)OC(=O)N[C@@H](Cc1ccccc1)[C@H](O)CNC[C@@H](O)[C@H](Cc1ccccc1)NC(=O)OCc1ccccc1 [Compound 45] , state its recorded inhibition at 10 µM. 87
